Biological target: T1, Boi2, P39969
T1 sequence (P39969 32-116, looked up): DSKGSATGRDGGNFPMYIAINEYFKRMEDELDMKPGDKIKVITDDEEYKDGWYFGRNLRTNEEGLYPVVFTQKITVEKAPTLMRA
Assay: SPOT array
Settings: median of control spots 1161
measurementType: SPOT intensity
Output: the number by itself.

Item under review: RAPPPVPKKPSSRIA . Reported SPOT intensity?
0

Item under review: NPLPKEPRLPKRKVA . Reported SPOT intensity?
2

Item under review: IRMPSNPALPKKLLN . Reported SPOT intensity?
2

Item under review: IVNKPLPPLPVAGSS . Reported SPOT intensity?
0

Item under review: VPVAPPPPPASLGQS . Reported SPOT intensity?
0

Item under review: LYKRKPILLPDPKPL . Reported SPOT intensity?
0

Item under review: TTNRGPPPLPPRANV . Reported SPOT intensity?
0

Item under review: TSIEIPKRSPLRFTS . Reported SPOT intensity?
2740

Item under review: VLRFLGFPLPIFEKG . Reported SPOT intensity?
1

Item under review: SGVRLPAPPPPPRRG . Reported SPOT intensity?
1

Item under review: ISNFVPPNLPMRRFK . Reported SPOT intensity?
0

Item under review: YVRRRPRVRLEPLLS . Reported SPOT intensity?
17

Item under review: YYNRQELALPKRMSS . Reported SPOT intensity?
1

Item under review: IPSRPAPKPPSSASA . Reported SPOT intensity?
0

Item under review: MTKTPETSPPKRPMG . Reported SPOT intensity?
0
